The reported numbers originate from the supplement of paper PMC7877785.

Assay: self-splicing fitness, log relative to wild type (ln ratio); higher = more splicing; Tetrahymena group I intron in knt gene, E. coli kanamycin selection, DiMSum; sequences stand for … in CUCUCU…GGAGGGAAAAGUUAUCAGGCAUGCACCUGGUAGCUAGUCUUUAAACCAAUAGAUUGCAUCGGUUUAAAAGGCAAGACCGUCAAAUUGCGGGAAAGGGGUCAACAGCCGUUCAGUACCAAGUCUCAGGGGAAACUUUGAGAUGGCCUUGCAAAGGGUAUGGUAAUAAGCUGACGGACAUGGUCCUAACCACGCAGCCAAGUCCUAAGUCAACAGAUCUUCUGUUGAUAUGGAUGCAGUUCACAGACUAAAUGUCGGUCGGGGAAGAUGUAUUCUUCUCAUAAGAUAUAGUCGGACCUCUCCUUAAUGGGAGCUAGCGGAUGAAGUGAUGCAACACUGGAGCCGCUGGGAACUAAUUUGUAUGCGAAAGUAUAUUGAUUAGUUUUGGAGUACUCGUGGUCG;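 note: selection with 25 µg/mL kanamycin versus none on LB agar overnight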
Conditions: 30 °C
measurement.label: self-splicing fitness (ln)
Answer field: number only, no words.

Worked examples, 5 sequences total:
residue.sequence	self-splicing fitness (ln)
AGCAAGCAAUAUUACGGAUU	-1.94
AUGGAGCAAUAUUACGCUUA	-2.53
AGAAAGCAAUAUUACGCUAU	-2.98
UCCCAGCAAUAUUACGCUUG	-3.31
CACUAGCAAUAUUACGUUGA	-3.56

# self-splicing fitness (ln) (sequence: GAUAAGCAAUAUUACGACAC ) is -0.403

# self-splicing fitness (ln) (sequence: GACCAGCAAUAUUACGGCGU ) is 0.046

# self-splicing fitness (ln) (sequence: GAUCAGCAAUAUUACGUUUU ) is -0.968

---

Assay: self-splicing fitness, log relative to wild type (ln ratio); higher = more splicing; Tetrahymena group I intron in knt gene, E. coli kanamycin selection, DiMSum; sequences stand for … in CUCUCU…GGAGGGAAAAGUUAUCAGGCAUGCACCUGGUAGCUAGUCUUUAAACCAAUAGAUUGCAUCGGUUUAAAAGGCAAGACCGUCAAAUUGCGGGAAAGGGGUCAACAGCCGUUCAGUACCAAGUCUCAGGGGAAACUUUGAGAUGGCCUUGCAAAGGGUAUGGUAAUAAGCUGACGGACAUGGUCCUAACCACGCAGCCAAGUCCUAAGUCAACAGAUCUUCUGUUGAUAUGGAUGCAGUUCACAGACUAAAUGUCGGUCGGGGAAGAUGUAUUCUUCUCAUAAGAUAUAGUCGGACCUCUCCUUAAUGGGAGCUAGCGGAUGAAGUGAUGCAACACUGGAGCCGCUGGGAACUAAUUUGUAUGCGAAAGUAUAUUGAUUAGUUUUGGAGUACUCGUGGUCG
Conditions: 30 °C
measurement.label: self-splicing fitness (ln)

Worked examples, 5 sequences total:
residue.sequence	self-splicing fitness (ln)
AUUAAGCAAUAUUACGAGUC	-3.25
ACAGAGCAAUAUUACGGCUU	-3.27
CACUAGCAAUAUUACGGUCA	-0.522
UUGCAGCAAUAUUACGACGG	-0.213
UAGCAGCAAUAUUACGUUUC	-2.78

Moving on to another sequence below.
# self-splicing fitness (ln) (sequence: CUGUAGCAAUAUUACGUUUU ) is -4.23

---

Test: self-splicing fitness, log relative to wild type (ln ratio); higher = more splicing; Tetrahymena group I intron in knt gene, E. coli kanamycin selection, DiMSum; sequences stand for … in CUCUCU…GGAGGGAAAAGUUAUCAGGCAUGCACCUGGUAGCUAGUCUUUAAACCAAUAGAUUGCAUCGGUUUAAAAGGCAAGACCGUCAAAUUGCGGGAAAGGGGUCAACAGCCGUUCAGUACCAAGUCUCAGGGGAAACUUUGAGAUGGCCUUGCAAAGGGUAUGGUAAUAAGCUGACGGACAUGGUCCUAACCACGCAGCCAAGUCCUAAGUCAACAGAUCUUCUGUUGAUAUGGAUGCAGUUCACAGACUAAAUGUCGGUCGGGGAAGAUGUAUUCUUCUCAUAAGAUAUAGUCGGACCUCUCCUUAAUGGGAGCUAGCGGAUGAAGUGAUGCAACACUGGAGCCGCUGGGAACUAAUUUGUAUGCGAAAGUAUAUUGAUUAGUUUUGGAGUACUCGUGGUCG
Conditions: 30 °C
In this section we review reported self-splicing fitness (ln) values for a set of sequences.

Worked examples, 2 sequences total:
residue.sequence	self-splicing fitness (ln)
GUGUAGCAAUAUUACGGAAA	-3
UAACAGCAAUAUUACGCACU	-1.26

# self-splicing fitness (ln) (sequence: UUUUAGCAAUAUUACGAUUA ) is -0.349

# self-splicing fitness (ln) (sequence: AUCGAGCAAUAUUACGGGAA ) is -2.59

# self-splicing fitness (ln) (sequence: UUAUAGCAAUAUUACGGACA ) is -1.66

# self-splicing fitness (ln) (sequence: AGAUAGCAAUAUUACGUUCG ) is -0.335

# self-splicing fitness (ln) (sequence: UGCUAGCAAUAUUACGUCGA ) is -1.18

# self-splicing fitness (ln) (sequence: GCUCAGCAAUAUUACGGGAC ) is -0.927

# self-splicing fitness (ln) (sequence: UAUUAGCAAUAUUACGGUGA ) is -1.92

# self-splicing fitness (ln) (sequence: UUGCAGCAAUAUUACGGCGG ) is -1.7

# self-splicing fitness (ln) (sequence: UAGAAGCAAUAUUACGUUUG ) is -2.32
